# assay_remarks: chemical genetic growth profiling, strain panel (AID 1159580);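 also: tested at 20 µM; growth read once vehicle control cultures reached saturation at 30 °C; 1 = growth at the plate median or of vehicle wells; lower values mean less growth of the strain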
# reported_conditions: S. cerevisiae deletion strains, growth OD, locus YMR205C, strain PFK2
Out of some 5,500 compounds screened, about 2,000 (36%) were called active. Another 18% or so got no clear call; they are omitted. Rule as the data show it: active = normalized growth mostly below about 0.91 (no sharp cut-off); inconclusive = no clear call, values can overlap the other calls; inactive = mostly above about 0.92. The list shows a part of the results.
I would appreciate it if you answered using one of these outcomes: 1 (yes) = active, 0 (no) = inactive

Consider the following illustrative entries.
compound	class_name
CC(N)CCCC(C)(C)O (stereo not given)	0 (no)
COc1cc(O)c(C(=O)/C=C/c2ccccc2)c(OC)c1	1 (yes)
COc1cc(O)c(C(=O)/C=C/c2ccc(OC)c(O)c2)c(OC)c1	1 (yes)
CC(C)(O)[C@@H]1[C@H]2OC(=O)[C@@H]1[C@]1(O)C[C@H]3O[C@]34C(=O)O[C@H]2[C@]14C	0 (no)
C=C1C2CC[C@H]3[C@]4(C)C[C@H](OC5OC(CO)C(OS(=O)(=O)O)C(OS(=O)(=O)O)C5OC(=O)CC(C)C)C[C@@H](C(=O)O)[C@H]4CC[C@]3(C2)[C@H]1O (stereo not given in full)	0 (no)
COc1cc(NS(=O)(=O)c2ccc(N)cc2)nc(OC)n1	0 (no)
N=c1ccn2c(n1)O[C@@H]1C2O[C@H](CO)[C@H]1O (stereo not given in full)	0 (no)
COc1ccc2c(c1OC)C(=O)O[C@@H]2[C@H]1c2cc3c(cc2CCN1C)OCO3	0 (no)

Enquiry: // outcome(item) with item = `COc1ccc2c(c1OC)C(=O)O[C@H]2[C@H]1c2cc3c(cc2CCN1C)OCO3`
Return: 0 (no)

Enquiry: Same for `CC1(C)OC(=O)NC1=O`
Return: 0 (no)

---

# assay_remarks: chemical genetic growth profiling, strain panel (AID 1159580);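 also: tested at 20 µM; growth read once vehicle control cultures reached saturation at 30 °C; 1 = growth at the plate median or of vehicle wells; lower values mean less growth of the strain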
# reported_conditions: S. cerevisiae deletion strains, growth OD, locus YKL160W, strain elf1
Among all 5,500 compounds or so, about 2,000 (36%) were called active. About 18% were inconclusive and are not listed. Cut-off read from the data, not from the text of the source: active = normalized growth mostly below about 0.91 (no sharp cut-off); inconclusive = no clear call, values can overlap the other calls; inactive = mostly above about 0.92. This is one part of the list.
Hi! Could you answer with just one of these? active, inactive

molecule	class_name
COc1cc(O)c(C(=O)/C=C/c2ccc(O)c(OC)c2)c(OC)c1	inactive

Enquiry: Per the assay record, what outcome was assigned to `CN(C)CC/C=C1\c2ccccc2Sc2ccc(Cl)cc21` ?
Return: active

Enquiry: Please answer likewise for `CS(=O)(=O)c1ccc(C2=C(c3ccccc3)C(=O)OC2)cc1`
Return: inactive

Enquiry: Can you check `COc1cc(/C=C/C(=O)/C=C(O)/C=C/c2ccc(O)c(OC)c2)ccc1O` next?
Return: active

Enquiry: Proceed to `NCCSSCCN`
Return: inactive

Enquiry: And then `CCOC(=O)C(C)(C)Oc1ccc(Cl)cc1` , what is it?
Return: inactive

Enquiry: // next record `C[N+](C)(C)CCOC(N)=O`
Return: inactive

Enquiry: Subsequent entry: `COc1ccc2c(c1OC)C(=O)O[C@H]2[C@H]1c2cc3c(cc2CCN1C)OCO3`
Return: inactive

Enquiry: Same read-out for CC(C[N+](C)(C)C)OC(N)=O (stereo not given) ?
Return: inactive

---

# assay_remarks: chemical genetic growth profiling, strain panel (AID 1159580);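 also: tested at 20 µM; growth read once vehicle control cultures reached saturation at 30 °C; 1 = growth at the plate median or of vehicle wells; lower values mean less growth of the strain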
# reported_conditions: S. cerevisiae deletion strains, growth OD, locus YDL214C, strain PRR2, stronger effect = lower value
The whole screen tested about 5,500 compounds, of which about 2,000 (36%) were called active. About 18% were inconclusive and are not listed. The list shows a part of the results.
Criterion: normalized growth strictly under 0.9. Met: fulfilled. Not met: not fulfilled.

As a guide, the following entries are already answered.
In [3]: df
Out[3]:
                                   molecule     class_name
0  S=C(Nc1ccc(Cl)cc1Cl)N(c1cccc(Cl)c1)c1nc2ccccc2s1      fulfilled
1     Cc1cc(NNC(=O)c2ccccc2Cl)nc2c1c(C)nn2C  not fulfilled

Enquiry: Determine if CS(=NC(=O)c1cccc(Cl)c1)c1ccc(OC(=O)c2ccc(Cl)cc2)cc1 (stereo not drawn) shows normalized growth strictly lower than 0.9.
Return: not fulfilled

Enquiry: Same lookup for `Cc1nnsc1C(=O)NNc1c(Cl)cccc1Cl` , please.
Return: not fulfilled

Enquiry: `Cc1ccc2nc(-c3ccc(Cl)cc3)cn2c1` ?
Return: not fulfilled

Enquiry: What would you report for `COc1ccc(NNC(=O)c2sc3ccccc3c2Cl)cc1` ?
Return: fulfilled

Enquiry: Item: COc1cc2c(cc1OC)C(C)N(C(=O)c1sc3ccccc3c1Cl)CC2 (stereo not drawn)
Return: not fulfilled

Enquiry: Moving on to the next molecule: `N#Cc1ccc(S(=O)(=O)Nc2ccccc2Oc2ccc(Cl)cc2Cl)cc1`
Return: not fulfilled
